- TARGET_ENTITY: human TLR8 (Homo sapiens, UniProt Q9NR97)
- Sequence (Q9NR97 27-1041): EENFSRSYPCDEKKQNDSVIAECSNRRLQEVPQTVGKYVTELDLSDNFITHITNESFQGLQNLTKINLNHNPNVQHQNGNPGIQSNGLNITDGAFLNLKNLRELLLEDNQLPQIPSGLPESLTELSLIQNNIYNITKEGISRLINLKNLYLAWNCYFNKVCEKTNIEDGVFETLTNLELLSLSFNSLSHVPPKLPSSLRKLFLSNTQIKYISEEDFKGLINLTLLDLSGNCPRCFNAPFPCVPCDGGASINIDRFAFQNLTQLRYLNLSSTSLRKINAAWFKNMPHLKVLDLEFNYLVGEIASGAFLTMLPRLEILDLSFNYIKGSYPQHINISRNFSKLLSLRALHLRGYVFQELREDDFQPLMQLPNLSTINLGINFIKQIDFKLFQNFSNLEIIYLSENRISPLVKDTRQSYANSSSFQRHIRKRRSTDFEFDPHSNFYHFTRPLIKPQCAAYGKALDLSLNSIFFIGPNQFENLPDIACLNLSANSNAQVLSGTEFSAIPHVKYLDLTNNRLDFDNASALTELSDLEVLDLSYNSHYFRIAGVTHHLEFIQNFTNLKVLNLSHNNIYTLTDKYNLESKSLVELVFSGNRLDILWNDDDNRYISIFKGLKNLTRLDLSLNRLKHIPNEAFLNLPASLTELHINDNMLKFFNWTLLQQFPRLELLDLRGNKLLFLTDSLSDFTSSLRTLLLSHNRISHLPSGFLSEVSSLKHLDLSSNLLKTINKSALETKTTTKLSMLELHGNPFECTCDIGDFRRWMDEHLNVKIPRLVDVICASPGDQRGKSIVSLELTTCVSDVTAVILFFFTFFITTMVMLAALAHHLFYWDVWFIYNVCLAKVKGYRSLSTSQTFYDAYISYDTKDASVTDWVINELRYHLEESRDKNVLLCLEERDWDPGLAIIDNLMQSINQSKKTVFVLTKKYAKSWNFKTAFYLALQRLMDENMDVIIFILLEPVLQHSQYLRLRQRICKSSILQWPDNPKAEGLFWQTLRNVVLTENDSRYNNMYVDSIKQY
As shown below, each of these compounds has a reported IC50 value.
PARAMETER_MEASURED: IC50 (nM)

In [3]: df
Out[3]:
                                    compound  parameter_measured  result_number
 0  [2H]c1ccc2c(N3C[C@@H]4CN(CCc5ccc(N6CC[C@@](C)(N)C6)nc5)CCN4[C@H](C)C3)ccc(C#N)c2n1                IC50             19
 1  [2H]c1ccc2c(N3C[C@@H]4CN(Cc5ccc(N6C[C@@H]7C[C@H]6CN7)nc5C)CCN4[C@H](C)C3)ccc(C#N)c2n1                IC50              9
 2  [2H]c1ccc2c(N3C[C@@H]4CN(c5ccc(N6CC7CCC(C6)N7)nc5)CCN4[C@@H](C)C3)ccc(C#N)c2n1                IC50             10
 3  [2H]c1ccc2c(N3C[C@@H]4CN(Cc5cnc(N6C[C@@H]7C[C@H]6CN7)cc5C)CCN4[C@H](C)C3)ccc(C#N)c2n1                IC50              8
 4  Cc1cc(N2CCOC[C@H](N)C2)ncc1N1CCN2CCN(c3ccc(C#N)c4ncccc34)CC2C1 (stereo partly shown)                IC50             13
 5  CO[C@H]1CN(c2ccc(CCN3CCN4[C@@H](C3)CN(c3ccc(C#N)c5ncccc35)C[C@H]4C)cn2)C[C@@H]1N                IC50             25
 6  [2H]c1ccc2c(N3C[C@@H]4CN(Cc5ccc(N6CC7CCC(C6)N7)nc5C)CCN4[C@H](C)C3)ccc(C#N)c2n1                IC50             20
 7  C[C@@H]1CN(c2ccc(C#N)c3ncccc23)C[C@@H]2CN(c3ccnc(N4C[C@@H](F)[C@@H](N)C4)c3)CCN21                IC50              7
 8  [2H]c1ccc2c(N3C[C@@H]4CN(Cc5ccc(N6CC7CC(C6)N7)nc5C)CCN4[C@H](C)C3)ccc(C#N)c2n1                IC50              8
 9  C[C@@H]1CN(c2ccc(C#N)c3ncccc23)C[C@@H]2CN(Cc3ccc(N4CCCNCC4)nc3)CCN21                IC50             28
10  C[C@@H]1CN(c2ccc(C#N)c3ncccc23)C[C@@H]2CN(Cc3cccc(N4CCNCC4)n3)CCN21                IC50             13
11  C[C@@H]1CN(c2ccc(C#N)c3ncccc23)C[C@@H]2CN(CCc3ccc(N4CC5(CNCCO5)C4)cc3)CCN21                IC50             29
12  [2H]c1ccc2c(N3C[C@@H]4CN(c5ccc6c(n5)CCNC6)CCN4[C@@H](C)C3)ccc(C#N)c2n1                IC50              1
